# MEASUREMENT NOTES: NCI Yeast Anticancer Drug Screen. Data for the bub3 strain (AID 167)
# CONDITION: S. cerevisiae bub3 mutant strain, at 5.0 µM (retest, dose inferred, filed as 0.5), hits give high values
# Description: Growth inhibition of yeast strains with defined genetic alterations is measured as a screen for potential anti-cancer activity. Selected strains with alterations in DNA damage repair or cell cycle control were exposed to compounds and growth inhibition was measured relative to vehicle treated controls. The strain used in this assay is bub3
Compounds without any hit were thinned out: in the full panel of roughly 79,000, 15% have a hit. The source made the active and inactive calls. No stated cut-off is given here; in the data, active means growth inhibition above about 70%; inactive means the rest.
PROPERTY: growth inhibition

COMPOUND	growth inhibition
CCC(C)NC(=S)N/N=C(\C)c1ccccn1 (centres undefined)	0% (inactive)

Prompt: For `COC(=O)/C=N/O` , what is its reported growth inhibition?
Completion: -19% (inactive)

Prompt: Which measured growth inhibition value corresponds to O=C(N/N=C/c1ccccc1O)C1Cc2ccccc2C1C(Cl)Cl (centres undefined) ?
Completion: 45% (inactive)

----------
# key: entry, value: growth inhibition
# MEASUREMENT NOTES: NCI Yeast Anticancer Drug Screen. Data for the mlh1 rad18 strain (AID 175)
# CONDITION: S. cerevisiae mlh1 rad18 strain growth inhibition; at 5.0 µM (retest, dose inferred, filed as 0.5); hits give high values
The panel holds about 79,000 compounds, 15% with a hit somewhere; the sample as a whole holds those more often.
Field format: number, assumed %, no unit text.

A selection of reference data follows.
COMPOUND	growth inhibition, %
CN(C)C(=S)N1C(=S)N(c2ccccc2)C(=Nc2ccccc2)C1=Nc1ccccc1	-20
C=CS(=O)(=O)c1ccc2ccccc2c1	-93
COC(=O)C(=O)C(=O)C1CCCC(c2ccccc2)C1=O (stereo not drawn)	-10
CN(C)N=Nc1ccc2[nH]c(=O)[nH]c2c1	19
Cc1ccc(S(=O)(=O)C2C=CC=CC=C2)cc1	-140

Prompt: Which value of growth inhibition has been reported for `OCCN1c2ccccc2Sc2ccc(Cl)cc21` in the records?
Completion: 12

Prompt: May I ask what growth inhibition has been recorded for CC(CCOP(=O)(O)OCCC(C)CC(C)(C)C)CC(C)(C)C (stereo not drawn) ?
Completion: 3

Prompt: Which growth inhibition value is on record for `CCn1c2ccccc2c2ccc(N=Nc3ccc(N(C)C)cc3)cc21` ?
Completion: 18

Prompt: Entry `Nc1nc(-c2cc3cc(Cl)ccc3o2)cs1` : reported growth inhibition = ?
Completion: 51

Prompt: Using the record for `C=CCOC(=O)C#CCCCC` , report its growth inhibition.
Completion: -1

Prompt: GET /values?readout=growth inhibition&item= CC(C)CC(NC(=O)SCc1ccccc1)C(=O)O (stereo not drawn)
Completion: 3

Prompt: // returns reported growth inhibition for input `O=C(O)c1ccc2cc3ccccc3cc2c1`
Completion: -24

Prompt: For `CC(=O)Sc1ccc(Br)cc1` , what is its reported growth inhibition?
Completion: -2

----------
# MEASUREMENT NOTES: NCI Yeast Anticancer Drug Screen. Data for the sgs1 mgt1 strain (AID 161);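 further: 0% = growth of cultures given vehicle only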
# CONDITION: S. cerevisiae sgs1 mgt1 strain, at 50.0 µM (retest, dose inferred, filed as 5.0)
Compounds without any hit were thinned out: in the full panel of roughly 79,000, 15% have a hit. Calls of active or inactive are those of the source. Rule as the data show it: active = growth inhibition above about 70%; inactive = the rest.
In this exercise, the only acceptable responses are YES (active), NO (inactive)

# count of solved cases: 4
MOLECULE	CLASS
C1Cc2c3c4c(c5c2C(C1)CCC5)CCCC4CCC3	NO
CCOC(=O)/C=C(\NC1CC(OC2C[C@](O)(C(C)=O)Cc3c(O)c4c(c(O)c32)C(=O)c2c(OC)cccc2C4=O)OC(C)C1O)C(=O)OCC (stereo not given in full)	YES
O=C1C=CC(=NN=C(c2ccccc2)c2ccccc2)C=C1	NO
OC(CCN1CCOCC1)C1c2ccccc2Cc2ccccc21 (stereo not given)	YES

Prompt: I would be grateful if you could indicate the recorded call for `c1ccc(NN=C(c2ccccc2)c2ccccc2)cc1` .
Completion: NO

----------
# MEASUREMENT NOTES: NCI Yeast Anticancer Drug Screen. Data for the cln2 rad14 strain (AID 165);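 further: 0% = growth equal to vehicle treated cultures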
# CONDITION: S. cerevisiae cln2 rad14 strain, at 5.0 µM (retest, dose inferred, filed as 0.5)
About 79,000 compounds went through this panel and 15% of them were active in at least one assay; those are over-represented in the sample as a whole. Activity calls are given as the source filed them. No stated cut-off is given here; in the data, active means growth inhibition above about 70%; inactive means the rest.
Assign a class; possible classes are yes = active, no = inactive

Solved cases (4 shown):
MOLECULE	CLASS
Cc1sc(Cc2ccccc2)nc1-c1ccc(N=Cc2ccc(N(CCOS(C)(=O)=O)CCOS(C)(=O)=O)cc2)cc1	no
COc1cc(C2c3cc4c(cc3C(OC3CCCCO3)C3COC(=O)C23)OCO4)cc(OC)c1OC (stereo unspecified)	no
CCCCCCCCCCCCOc1c(Cl)cc(Cl)c(Cl)c1Cc1c(O)c(Cl)cc(Cl)c1Cl	no
Oc1[nH]c2ccccc2c1N=NC(=S)N1CCCC1	no

Prompt: Which outcome did this test record for the molecule CCCCCCCCN(CCCCCCCC)CC(O)c1ccc2cc3c(nc2c1)CCCC3 (stereo unspecified) ?
Completion: no

Prompt: Query: recorded result category for OC(CCN1CCCCC1)(Cc1ccccc1)c1cccc(Cl)c1 (stereo unspecified) in this test
Completion: no

Prompt: // return assay outcome for `Cc1ccc(NC(=O)/C(CC(=O)c2sc(Nc3ccc(Cl)c(Cl)c3)nc2C)=N\Nc2ccc([N+](=O)[O-])cc2[N+](=O)[O-])c(C)c1`
Completion: no

Prompt: Check the results log: what was the call for `c1ccc(C2=NC(=c3ccc(=C4N=C(c5ccccc5)C(c5ccccc5)=N4)cc3)N=C2c2ccccc2)cc1` ?
Completion: no

Prompt: In this assay, the call recorded for `C#C[C@]1(OC(C)=O)CC[C@H]2[C@@H]3CCC4=CC(=O)CC[C@@H]4[C@H]3CC[C@@]21C` was what?
Completion: no

Prompt: Recorded test call requested for OC1CN(C2CCCCC2)CC1C1(O)CCN(C2CCCCC2)C1 (stereo unspecified)
Completion: no

Prompt: GET /call?item= `COc1ccc2c(C#N)cc3c(c[n+](C)c4ccccc34)c2c1` returns the recorded outcome of this test.
Completion: no

Prompt: Outcome logged for `O=C(O)c1ccc2cc3ccccc3cc2c1` in this assay:
Completion: no

----------
# MEASUREMENT NOTES: NCI Yeast Anticancer Drug Screen. Data for the bub3 strain (AID 167)
# CONDITION: S. cerevisiae bub3 mutant strain, at 50.0 µM, hits give high values
# Method: Growth inhibition of yeast strains with defined genetic alterations is measured as a screen for potential anti-cancer activity. Selected strains with alterations in DNA damage repair or cell cycle control were exposed to compounds and growth inhibition was measured relative to vehicle treated controls. The strain used in this assay is bub3
Compounds without any hit were thinned out: in the full panel of roughly 79,000, 15% have a hit.
I would appreciate it if you labelled entries MET when growth inhibition is 60% or higher, otherwise NOT MET.

COMPOUND	CLASS
C=CCCCCO/N=C/c1c2c(O)c3c(O)c(C)c4c(c3c1O)C(=O)C(C)(O/C=C/C(OC)C(C)C(OC(C)=O)C(C)C(O)C(C)C(O)C(C)/C=C/C=C(\C)C(=O)N2)O4 (configuration not stated)	MET
O=C1NC(=O)C(c2ccccc2)(c2ccccc2)C2CC3c4[nH]c5ccccc5c4CCN3CC12 (configuration not stated)	NOT MET
COc1cc2c(c(O)c1C)C(=O)C(Cl)=CC2=O	MET
Cc1c(Cl)cc2[nH]c(C(F)(F)F)nc2c1Cl	NOT MET

Prompt: Threshold query (growth inhibition >= 60%) on `Cc1ccccc1C(=O)c1ccc(O)c2ccccc12`
Completion: NOT MET

Prompt: Given the entry COc1ccc(C2Cc3cc(OC)ccc3C2=O)cc1 (configuration not stated) , answer whether its growth inhibition meets or surpasses 60%.
Completion: MET

Prompt: Reported growth inhibition at or above 60%? CC(CN(C)C)C(/C=C/c1ccccc1)=N\NC(=O)c1ccccc1 (configuration not stated)
Completion: NOT MET

Prompt: Reported growth inhibition at or above 60%? `Cc1nc(C(N)=S)sc1C(=O)C/C(=N/N)C(=O)Nc1cccc(Cl)c1C`
Completion: NOT MET

Prompt: Assess whether reported growth inhibition for `Cc1ccc2c(c1)CSCCO2` sits at 60% or higher.
Completion: MET

Prompt: Reported growth inhibition at or above 60%? CCOC(C)(OCC)C(N)c1ccccc1 (configuration not stated)
Completion: NOT MET

----------
Entries and their measured growth inhibition follow.
# MEASUREMENT NOTES: NCI Yeast Anticancer Drug Screen. Data for the rad50 strain (AID 155);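 further: 0% = growth of vehicle-only cultures of the same strain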
# CONDITION: S. cerevisiae rad50 strain growth inhibition; at 50.0 µM (retest, dose inferred, filed as 5.0); hits give high values
About 79,000 compounds went through this panel and 15% of them were active in at least one assay; those are over-represented in the sample as a whole. The source made the active and inactive calls. Rule as the data show it: active = growth inhibition above about 70%; inactive = the rest.

Prompt: Report growth inhibition for `C1=CC2OC1c1cc3ccccc3cc12` please.
Completion: 92% (active)

Prompt: # query: growth inhibition of entry `CCCCCN(CCC)CCCCCCCCCN1CCCc2cc(OC)ccc21`
Completion: -2% (inactive)

Prompt: # growth inhibition lookup, item `O=C(Nc1cccc2ccccc12)OCCCCCCl`
Completion: 97% (active)

Prompt: Look at this molecule and give its reported growth inhibition. CCCCCOC(=O)C(C)SC#N (stereo not drawn)
Completion: 45% (inactive)

Prompt: Give its growth inhibition value. Item: `Cc1nc(C(N)=S)sc1C(=O)C/C(=N/N)C(=O)Nc1cccc(Cl)c1C`
Completion: 24% (inactive)

Prompt: Look at this molecule and give its reported growth inhibition. COc1ccc(C(C)c2cc3c(cc2O)OCO3)cc1 (stereo not drawn)
Completion: 99% (active)

Prompt: Look up growth inhibition: `N#Cc1ccc2nc3ccc(N)cc3nc2c1`
Completion: 96% (active)
